ASSAY_SETUP: human gut metagenome, 24 h, 2 µM; note: call rule not given here
PARAMETER_MEASURED: Bacterial Biotransformation

C[C@@H](CO)NC(=O)[C@@H]1C=C2c3cccc4[nH]cc(c34)C[C@H]2N(C)C1.O=C(O)/C=C\C(=O)O [ERGONOVINE MALEATE] ... Compound NOT metabolized
CCCc1nn(C)c2c(=O)[nH]c(-c3cc(S(=O)(=O)N4CCN(C)CC4)ccc3OCC)nc12.O=C(O)CC(O)(CC(=O)O)C(=O)O [SILDENAFIL CITRATE] ... Compound NOT metabolized

----------
ASSAY_NOTES: The drug is tested on Z-025 corresponding to rabbit gut metagenome with ENA study accession number: PRJEB37062 and ENA sample accession number: ERS12561824 for biotransformation under anaerobic condition. The drug concentrations were measured over 9 timepoints collected between 0 and 24 hours of incubation by liquid-chromatography-coupled mass spectrometry (LC–MS)
ASSAY_SETUP: 2 µM
PARAMETER_MEASURED: Bacterial Biotransformation

CC(=O)CC(c1ccccc1)c1c(O)c2ccccc2oc1=O (stereo not drawn) ... Compound metabolized
CC(CN1c2ccccc2Sc2ccccc21)N(C)C (stereo not drawn) ... Compound metabolized
CC[C@@H](CO)NC(=O)[C@@H]1C=C2c3cccc4c3c(cn4C)C[C@H]2N(C)C1.O=C(O)/C=C\C(=O)O [METHYSERGIDE MALEATE] ... Compound NOT metabolized
Cc1nc(-c2ccc(OCC(C)C)c(C#N)c2)sc1C(=O)O ... Compound NOT metabolized

Alright, here's another compound for you.
Problem: // query Bacterial Biotransformation value for entry CC(C)(C)NC[C@H](O)COc1ccccc1C1CCCC1.CC(C)(C)NC[C@H](O)COc1ccccc1C1CCCC1.O=S(=O)(O)O [PENBUTOLOL SULFATE]
Result: Compound NOT metabolized
